target: human α9 integrin molecule (human, UniProt Q13797 30-1035; P05556 21-798); assay: cell-based or functional assay
Sequence (Q13797 30-1035 limits assumed, chain 1 of 2): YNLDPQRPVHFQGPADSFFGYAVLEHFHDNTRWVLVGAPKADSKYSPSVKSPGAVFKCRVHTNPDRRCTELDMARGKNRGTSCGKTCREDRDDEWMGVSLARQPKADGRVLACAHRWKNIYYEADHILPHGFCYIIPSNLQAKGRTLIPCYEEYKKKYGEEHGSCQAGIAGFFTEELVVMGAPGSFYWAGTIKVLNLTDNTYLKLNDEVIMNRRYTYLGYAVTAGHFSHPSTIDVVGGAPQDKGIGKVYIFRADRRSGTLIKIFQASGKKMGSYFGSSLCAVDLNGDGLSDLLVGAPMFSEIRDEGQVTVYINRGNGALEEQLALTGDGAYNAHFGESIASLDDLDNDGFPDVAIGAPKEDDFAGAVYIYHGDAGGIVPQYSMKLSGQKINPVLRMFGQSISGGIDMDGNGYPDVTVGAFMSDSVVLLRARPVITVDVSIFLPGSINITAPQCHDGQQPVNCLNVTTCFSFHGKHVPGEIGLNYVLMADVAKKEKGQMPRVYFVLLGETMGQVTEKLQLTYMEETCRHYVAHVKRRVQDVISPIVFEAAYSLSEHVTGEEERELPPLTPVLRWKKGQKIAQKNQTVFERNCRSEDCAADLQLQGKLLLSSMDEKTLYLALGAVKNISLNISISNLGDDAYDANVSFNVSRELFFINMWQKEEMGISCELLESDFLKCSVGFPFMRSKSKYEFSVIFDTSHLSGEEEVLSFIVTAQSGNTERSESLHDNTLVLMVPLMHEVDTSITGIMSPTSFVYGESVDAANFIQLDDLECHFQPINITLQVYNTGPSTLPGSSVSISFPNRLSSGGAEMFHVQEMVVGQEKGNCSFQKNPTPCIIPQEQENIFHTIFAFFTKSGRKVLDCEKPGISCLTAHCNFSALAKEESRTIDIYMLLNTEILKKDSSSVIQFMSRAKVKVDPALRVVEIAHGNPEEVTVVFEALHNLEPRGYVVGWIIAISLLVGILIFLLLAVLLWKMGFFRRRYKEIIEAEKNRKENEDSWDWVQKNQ
Sequence (P05556 21-798 limits assumed, chain 2 of 2): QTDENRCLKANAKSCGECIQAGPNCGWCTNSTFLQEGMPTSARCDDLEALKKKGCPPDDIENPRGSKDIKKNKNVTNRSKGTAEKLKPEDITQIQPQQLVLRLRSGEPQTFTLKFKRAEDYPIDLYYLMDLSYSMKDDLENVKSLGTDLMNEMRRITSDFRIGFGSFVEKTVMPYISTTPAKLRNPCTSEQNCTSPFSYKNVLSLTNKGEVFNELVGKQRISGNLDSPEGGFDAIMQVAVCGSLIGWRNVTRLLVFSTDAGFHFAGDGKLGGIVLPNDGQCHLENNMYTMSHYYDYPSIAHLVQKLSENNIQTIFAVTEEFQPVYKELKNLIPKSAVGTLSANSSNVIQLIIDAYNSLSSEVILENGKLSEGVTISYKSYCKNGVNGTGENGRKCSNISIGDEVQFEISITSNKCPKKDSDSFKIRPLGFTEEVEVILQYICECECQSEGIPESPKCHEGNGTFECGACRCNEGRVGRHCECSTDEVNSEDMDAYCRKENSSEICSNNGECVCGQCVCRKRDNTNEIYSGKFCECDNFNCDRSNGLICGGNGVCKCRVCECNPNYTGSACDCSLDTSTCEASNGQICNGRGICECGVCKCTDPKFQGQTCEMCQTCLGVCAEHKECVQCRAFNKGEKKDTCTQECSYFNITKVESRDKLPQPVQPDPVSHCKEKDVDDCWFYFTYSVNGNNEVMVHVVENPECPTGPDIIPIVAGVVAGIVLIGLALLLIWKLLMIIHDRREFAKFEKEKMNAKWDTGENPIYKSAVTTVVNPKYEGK
value kind: inhibitory rate (%) of migration of SW480/hα9 cell against nOPN-RAA, antibody at 5 µg/mL

>>> value_reported("RY9A2v11(M34L)012 antibody (antibody, human IgG1, kappa, V domains shown) VH: QVQLVQSGAEVKKPGSSVKMSCKASGYTLTTYWLHWVKQRPGQGLEWIGYINPSSGYTEYNQKFQGRVTITADKSTSTAYMELSSLRSEDTAVYYCAIYGDYGDFYFDYWGQGTTVTVSS VL: DIQMTQSPSSLSASVGDRVTITCRASQSVNTDVAWYQQKPGKAPKLLIYFASNHYTGVPSRFSGSGSGTDFTFTISSLQPEDIATYYCRQDYSSPFTFGGGTKVEIKR")
"84%"
>>> value_reported("RY9A2v12(M34L)012 antibody (antibody, human IgG1, kappa, V domains shown) VH: QVQLVQSGAEVKKPGSSVKVSCKASGYTLTTYWLHWVRQAPGQGLEWMGYINPSSGYTEYNQKFQGRVTITADKSTSTAYMELSSLRSEDTAVYYCAIYGDYGDFYFDYWGQGTTVTVSS VL: DIQMTQSPSSLSASVGDRVTITCRASQSVNTDVAWYQQKPGKAPKLLIYFASNHYTGVPSRFSGSGSGTDFTFTISSLQPEDIATYYCRQDYSSPFTFGGGTKVEIKR")
"86%"
>>> value_reported("RY9A2v5(IAW)01 antibody (antibody, human IgG1, kappa, V domains shown) VH: QVQLVQSGAEVKKPGSSVKMSCKASGYTLTTYWIHWVKQRPGQGLEWIGYINPSSGYTEYNQKFKDRVTITADKSTSTAYMELSSLRSEDTAVYYCAIYGDYGAWYFDYWGQGTTVTVSS VL: DIQMTQSPSSLSASVGDRVTITCKASQSVNTDVAWYQQKPGKAPKLLIYFASNHYTGVPSRFSGSGSGTDFTFTISSLQPEDIATYYCRQDYSSPFTFGGGTKVEIKR")
"109%"
>>> value_reported("mouse Y9A2 antibody (antibody, V domains shown) VH: QVQLQQSGAELANPGASVKMSCKASGYTLTTYWMHWVKQRPGQGLEWIGYINPSSGYTEYNQKFKDKATLTADKSSSTAYMQLTSLTSEDSAVYYCAIYGDYGDFYFDYWGQGTTLTVSS VL: SIVMTQTPKFLLVSAGDRVTMTCKASQSVNTDVAWFQQKPGQSPKLLIYFASNHYTGVPDRFTGSGYGTDFTFTISTVQAEDLAIYFCRQDYSSPFTFGGGTKLEIKR")
"28%"

All values here come from patent US20110014193A1.
